// data source = patent US8329703B2

System: Huh-Luc-Neo cells
assay_summary: Cell Titer-Glo Cell Viability Assay
Type: cell-based, human
condition_label: inhibition of cell viability at 50 μM, 2 doses, conditions identical to HCV Replicon RNA Assay
measured_metric: Toxicity % Inhibition at 50 μM (2 doses) (%)
// units = %; emit number, no label

compound	Toxicity % Inhibition at 50 μM (2 doses) (%)
Cc1ccc(O)c(-c2nn(C)cc2C#Cc2ccc(N)cc2)c1 [VQ_23714]	33.4
COc1ccc(C#Cc2cn(C)nc2-c2cc(Cl)c(C)cc2O)cc1 [VQ_23374]	13.0
Cn1cc(C#CC(C)(C)C)c(-c2cc(-c3cccc(Cl)c3)ccc2O)n1 [VQ_35543]	8.2
CCCCCC#Cc1cn(C)nc1-c1cc(Cl)ccc1O [VQ_23324]	8.8

-- ask Reported Toxicity % Inhibition at 50 μM (2 doses) for Huh-Luc-Neo cells, given Cn1cc(C#CC(C)(C)C)c(-c2cc(Cl)ccc2O)n1 [VQ_23322] ?
-- reply 1.5

-- ask Reported Toxicity % Inhibition at 50 μM (2 doses) for Huh-Luc-Neo cells, given Cn1cc(C#CC(C)(C)C)c(-c2cc(C#CCC3CCCCC3)ccc2O)n1 [VQ_34395] ?
-- reply 23.6

-- ask Reported Toxicity % Inhibition at 50 μM (2 doses) for Huh-Luc-Neo cells, given Cc1cnc(Nc2ccc([N+](=O)[O-])cc2-c2nn(C)cc2C#CC(C)(C)C)s1 [VQ_36669] ?
-- reply 26.7

-- ask Reported Toxicity % Inhibition at 50 μM (2 doses) for Huh-Luc-Neo cells, given Cn1cc(C#CC(C)(C)C)c(-c2cc([N+](=O)[O-])ccc2NCc2c(F)cccc2F)n1 [VQ_36665] ?
-- reply 25.6

-- ask Reported Toxicity % Inhibition at 50 μM (2 doses) for Huh-Luc-Neo cells, given Cc1cc(O)c(-c2nn(C)cc2C#CCCCC#N)cc1Cl [VQ_24691] ?
-- reply 28.3

-- ask Reported Toxicity % Inhibition at 50 μM (2 doses) for Huh-Luc-Neo cells, given CC(Nc1ccc([N+](=O)[O-])cc1-c1nn(C)cc1C#CC(C)(C)C)c1ccccc1 (stereo not drawn) [VQ_36666] ?
-- reply 19.0

-- ask Reported Toxicity % Inhibition at 50 μM (2 doses) for Huh-Luc-Neo cells, given COc1ccc(C#Cc2cn(C)nc2-c2cc(Cl)ccc2O)cc1 [VQ_23317] ?
-- reply 2.1

-- ask Reported Toxicity % Inhibition at 50 μM (2 doses) for Huh-Luc-Neo cells, given Cc1ccc(O)c(-c2nn(C)cc2C#CC2=CCCCC2)c1 [VQ_23307] ?
-- reply 14.8

-- ask Reported Toxicity % Inhibition at 50 μM (2 doses) for Huh-Luc-Neo cells, given COc1ccc(O)c(-c2nn(C)cc2C#CC(C)(C)C)c1 [VQ_34145] ?
-- reply 13.1

-- ask Reported Toxicity % Inhibition at 50 μM (2 doses) for Huh-Luc-Neo cells, given Cn1cc(C#CC(C)(C)C)c(-c2cc([N+](=O)[O-])ccc2NC2CCCCC2)n1 [VQ_36661] ?
-- reply 14.4

###

Tested on: Huh-Luc-Neo cells
assay_summary: Cell Titer-Glo Cell Viability Assay
Format: cell-based, human
condition_label: inhibition of cell viability at 100 μM, 1 dose, conditions identical to HCV Replicon Luciferase Assay (48 h)
measured_metric: Toxicity % Inhibition at 100 μM (1 dose) (%)
// units = %; emit number, no label

-- ask Reported Toxicity % Inhibition at 100 μM (1 dose) for Huh-Luc-Neo cells, given Cc1ccc(O)c(-c2nn(C)cc2C#CC2=CCCCC2)c1 ?
-- reply 44.8

-- ask Reported Toxicity % Inhibition at 100 μM (1 dose) for Huh-Luc-Neo cells, given CC(Nc1ccc([N+](=O)[O-])cc1-c1nn(C)cc1C#CC(C)(C)C)c1ccccc1 (centres unmarked) ?
-- reply 12.9

-- ask Reported Toxicity % Inhibition at 100 μM (1 dose) for Huh-Luc-Neo cells, given CC(=O)c1ccc(N2CCN(C(=O)c3c(C#CC(C)(C)C)c(-c4cc(Cl)ccc4O)nn3C)CC2)cc1 ?
-- reply 7.3

-- ask Reported Toxicity % Inhibition at 100 μM (1 dose) for Huh-Luc-Neo cells, given Cc1ccc(O)c(-c2nn(C)cc2C#CC(C)(C)C)c1 ?
-- reply 33.3

-- ask Reported Toxicity % Inhibition at 100 μM (1 dose) for Huh-Luc-Neo cells, given Cn1cc(C#CC(C)(C)C)c(-c2cc(NC(=O)c3cccc(Cl)c3)ccc2O)n1 ?
-- reply 24.2

###

System: HCV Replicon (HCV IRES driven luciferase reporter) in Huh-Luc-Neo cells
assay_summary: HCV Replicon Luciferase Assay
Type: cell-based
condition_label: Hepatitis C virus, 48 h, read-out: Luciferase IC50, Huh-Luc-Neo cells, 48 h; no unit printed in table (b301 gives IC50s in μM)
IC50 listing for selected compounds.
// units = µM; emit number, no label

compound	IC50 / µM
Cn1cc(C#CC(C)(C)C)c(-c2cc([N+](=O)[O-])ccc2NCC(C)(C)CNc2ccc([N+](=O)[O-])cc2-c2nn(C)cc2C#CC(C)(C)C)n1 [VQ_36660]	10.4

-- ask Param item = Cn1cc(C#CC(C)(C)C)c(-c2cc([N+](=O)[O-])ccc2NCCCNc2ccc([N+](=O)[O-])cc2-c2nn(C)cc2C#CC(C)(C)C)n1 [VQ_36673] ; retrieve measured IC50.
-- reply 2.09

###

Test system: Huh-Luc-Neo cells
assay_summary: Cell Titer-Glo Cell Viability Assay
Assay type: cell-based, human
condition_label: inhibition of cell viability at 50 μM, 2 doses, conditions identical to HCV Replicon RNA Assay
measured_metric: Toxicity % Inhibition at 50 μM (2 doses) (%)
// units = %; emit number, no label

-- ask Param item = Cn1cc(C#CC(C)(C)C)c(-c2cc(C#Cc3ccc(Cl)cc3)ccc2O)n1 ; retrieve measured Toxicity % Inhibition at 50 μM (2 doses).
-- reply 24.5

-- ask Param item = Cn1cc(C#CC(C)(C)C)c(-c2cc(NC(=O)c3cccc(Cl)c3)ccc2O)n1 ; retrieve measured Toxicity % Inhibition at 50 μM (2 doses).
-- reply 15.8

-- ask Param item = Cn1nc(-c2cc(Br)ccc2O)c(C#CC(C)(C)C)c1C#CCCCC#N ; retrieve measured Toxicity % Inhibition at 50 μM (2 doses).
-- reply 23.9

###

Test system: Huh-Luc-Neo cells
assay_summary: Cell Titer-Glo Cell Viability Assay
Assay type: cell-based, human
condition_label: inhibition of cell viability at 100 μM, 1 dose, conditions identical to HCV Replicon Luciferase Assay (48 h)
Under this convention, true denotes Toxicity % Inhibition at 100 μM (1 dose) strictly below 20% and false denotes Toxicity % Inhibition at 100 μM (1 dose) at or above 20%.

Record excerpt, results attached:
compound_smiles	class_label
Cc1ccc(O)c(-c2nn(C)cc2C#Cc2ccc(N)cc2)c1	false
Cn1cc(C#CC(C)(C)C)c(-c2cc([N+](=O)[O-])ccc2NCc2c(F)cccc2F)n1	true
CCCCCCNc1ccc([N+](=O)[O-])cc1-c1nn(C)cc1C#CC(C)(C)C	true

-- ask Problem: For the molecule COc1ccc(C#Cc2cn(C)nc2-c2cc(Cl)ccc2O)cc1 , is Toxicity % Inhibition at 100 μM (1 dose) under 20%?
-- reply true

-- ask Problem: For the molecule Cn1cc(C#CC(C)(C)C)c(-c2cc(C#CCC3CCCCC3)ccc2O)n1 , is Toxicity % Inhibition at 100 μM (1 dose) under 20%?
-- reply false

###

System: Huh-Luc-Neo cells
assay_summary: Cell Titer-Glo Cell Viability Assay
Format: cell-based, human
condition_label: inhibition of cell viability at 50 μM, 2 doses, conditions identical to HCV Replicon RNA Assay
Toxicity % Inhibition at 50 μM (2 doses) listing for selected compounds.
// units = %; emit number, no label

compound_smiles	assay_system	measured_result
CCCCCCNc1ccc([N+](=O)[O-])cc1-c1nn(C)cc1C#CC(C)(C)C	Huh-Luc-Neo cells	23.8
Cn1cc(C#CC(C)(C)C)c(-c2cc(NC(=O)c3ccc(Cl)c(Cl)c3)ccc2O)n1	Huh-Luc-Neo cells	13.7
CC(=O)c1ccc(N2CCN(C(=O)c3c(C#CC(C)(C)C)c(-c4cc(Cl)ccc4O)nn3C)CC2)cc1	Huh-Luc-Neo cells	12.1

Please find the next compound below.
-- ask Param item = Cn1cc(C#CC(C)(C)C)c(-c2cc([N+](=O)[O-])ccc2OCc2c(F)cccc2F)n1 ; retrieve measured Toxicity % Inhibition at 50 μM (2 doses).
-- reply 22.8

###

System: Huh-Luc-Neo cells
assay_summary: Cell Titer-Glo Cell Viability Assay
Type: cell-based, human
condition_label: inhibition of cell viability at 100 μM, 1 dose, conditions identical to HCV Replicon Luciferase Assay (48 h)
Under this convention, satisfied denotes Toxicity % Inhibition at 100 μM (1 dose) strictly below 20% and not satisfied denotes Toxicity % Inhibition at 100 μM (1 dose) at or above 20%.

Record excerpt, results attached:
molecule	class_label
Cn1cc(C#CC(C)(C)C)c(-c2cc([N+](=O)[O-])ccc2NC(=O)COc2ccccc2)n1 [VQ_36907]	not satisfied
Cn1cc(C#CC2CC2)c(-c2cc(Br)ccc2O)n1	not satisfied
Cn1cc(C#CC(C)(C)C)c(-c2cc([N+](=O)[O-])ccc2OCc2c(F)cccc2F)n1	not satisfied
COc1ccc(S(=O)(=O)Nc2ccc([N+](=O)[O-])cc2-c2nn(C)cc2C#CC(C)(C)C)cc1	satisfied
Cn1cc(C#CC(C)(C)C)c(-c2cc([N+](=O)[O-])ccc2NCc2ccccc2C#N)n1	not satisfied

-- ask Problem: For the molecule Cn1cc(C#CC(C)(C)C)c(-c2cc([N+](=O)[O-])ccc2NCC(C)(C)CNc2ccc([N+](=O)[O-])cc2-c2nn(C)cc2C#CC(C)(C)C)n1 , is Toxicity % Inhibition at 100 μM (1 dose) under 20%?
-- reply satisfied

-- ask Problem: For the molecule COc1ccc(C#Cc2cn(C)nc2-c2cc(Cl)c(C)cc2O)cc1 , is Toxicity % Inhibition at 100 μM (1 dose) under 20%?
-- reply satisfied

-- ask Problem: For the molecule Cn1cc(C#CC(C)(C)C)c(-c2cc(C#Cc3ccc(Cl)cc3)ccc2O)n1 , is Toxicity % Inhibition at 100 μM (1 dose) under 20%?
-- reply not satisfied
